- experiment-summary: chemical genetic growth profiling, strain panel (AID 1159580);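 also: tested at 20 µM; growth read once vehicle control cultures reached saturation at 30 °C; 1 = growth at the plate median or of vehicle wells; lower values mean less growth of the strain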
- condition-details: S. cerevisiae deletion strains, growth OD, locus YNL153C, strain GIM3, hits give low values
About 2,000 (36%) of roughly 5,500 compounds were called active. Inconclusive results (about 18%) are left out. The list shows a part of the results.
Assignment: determine reported normalized growth for the given molecules.
Write no unit; give the number alone.

Determine from records and report normalized growth for CCCCC/C=C\C/C=C\C/C=C\C/C=C\CCCC(=O)O 1

Quickly give me recorded normalized growth for CCc1cccc(C)c1NC(=O)N1CCN(C(=O)OC(C)(C)C)CC1 0.994

Respond only with normalized growth recorded for COc1ccc2c(c1)[nH]c1c(C)nccc12 1.02

For the molecule NCCS , give its reported normalized growth. 1.01

Quickly give me recorded normalized growth for O=c1cc(-c2ccc(O)cc2)oc2cc(O[C@@H]3O[C@H](CO)[C@@H](O)[C@H](O)[C@H]3O[C@@H]3OC[C@](O)(CO)[C@H]3O)cc(O)c12 1

For the molecule COc1ccc2c3c1O[C@H]1C(=O)CC[C@@]4(O)C(C2)N(CC2CC2)CCC314 (stereo partly drawn) , report normalized growth. 0.995

Tell me measured normalized growth for COC(=O)c1cc2c(cn1)[nH]c1ccccc12 please. 0.995

Respond only with normalized growth recorded for Cn1nnnc1SCC1=C(C(=O)O)N2C(=O)C(NC(=O)C(OC=O)c3ccccc3)C2SC1 (stereo not drawn) 0.997

Where these numbers come from: PubChem BioAssay AID1159580
